Reference for the values: ChEMBL document CHEMBL1131321

# target of assay: Cannabinoid receptor 1 (Rattus norvegicus, UniProt P20272)
# Sequence (P20272 whole entry): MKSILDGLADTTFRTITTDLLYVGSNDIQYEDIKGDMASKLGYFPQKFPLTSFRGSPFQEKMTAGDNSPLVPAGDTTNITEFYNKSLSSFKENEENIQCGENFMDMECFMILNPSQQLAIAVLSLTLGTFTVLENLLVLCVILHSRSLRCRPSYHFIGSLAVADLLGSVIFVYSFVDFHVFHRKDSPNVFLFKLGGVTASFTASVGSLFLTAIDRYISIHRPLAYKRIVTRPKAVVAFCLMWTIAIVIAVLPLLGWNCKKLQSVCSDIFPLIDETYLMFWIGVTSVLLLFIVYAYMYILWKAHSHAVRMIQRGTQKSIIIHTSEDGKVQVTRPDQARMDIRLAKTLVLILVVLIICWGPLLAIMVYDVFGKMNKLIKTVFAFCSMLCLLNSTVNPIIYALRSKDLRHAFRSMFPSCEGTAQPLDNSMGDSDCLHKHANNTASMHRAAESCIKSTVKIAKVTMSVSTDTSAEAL
parameter measured: Ki

Use the examples below as a reference point.
[[record]]
compound = "C=C(C)[C@@H]1CCC(C)=C[C@H]1c1c(O)cc(C2(CCCCCC)SCCS2)cc1O"
value_reported = "136 nM"

[[record]]
compound = "CCCCCCC(=O)c1cc(O)c2c(c1)OC(C)(C)[C@@H]1CC=C(C)C[C@@H]21"
value_reported = "21.7 nM"


Respond only with Ki recorded for CCCCCCC(O)c1cc(O)c2c(c1)OC(C)(C)[C@@H]1CC=C(C)C[C@@H]21 (stereo not given in full) 86.4 nM

Respond only with Ki recorded for CCCCCC#Cc1cc(O)c2c(c1)OC(C)(C)[C@@H]1CC=C(C)C[C@@H]21 0.65 nM

Respond only with Ki recorded for CCCCCCC1(c2cc(O)c3c(c2)OC(C)(C)[C@@H]2CC=C(C)C[C@@H]32)CC1 2.17 nM

---

Below is a list of entries, each paired with its recorded pKi value.
# target of assay: Cannabinoid receptor 2 (Mus musculus)
# Sequence (P47936 whole entry): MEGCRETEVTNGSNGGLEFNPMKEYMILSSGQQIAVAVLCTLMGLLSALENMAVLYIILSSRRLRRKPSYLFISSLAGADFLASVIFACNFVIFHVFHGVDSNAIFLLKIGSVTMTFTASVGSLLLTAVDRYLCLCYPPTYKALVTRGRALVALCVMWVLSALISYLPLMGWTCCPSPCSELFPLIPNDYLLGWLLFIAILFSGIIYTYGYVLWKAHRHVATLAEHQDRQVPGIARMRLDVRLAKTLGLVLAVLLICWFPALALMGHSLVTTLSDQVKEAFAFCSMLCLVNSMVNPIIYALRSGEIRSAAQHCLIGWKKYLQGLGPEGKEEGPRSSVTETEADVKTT
# experiment notes: The compound was evaluated for its affinity towards cannabinoid receptor 2 (CB2) in mouse spleen
# Type: tissue-based
# details: read-out: Ki
Formally, pKi is defined as -log10 of the concentration c, with c in mol/L.

[[record]]
compound = "CCCCCCC(O)c1cc(O)c2c(c1)OC(C)(C)[C@@H]1CC=C(C)C[C@@H]21 (stereo not given in full)"
parameter_measured = "pKi"
value_reported = 7.18


Respond only with pKi recorded for CCCCCCC(=O)c1cc(O)c2c(c1)OC(C)(C)[C@@H]1CC=C(C)C[C@@H]21 7.08

Respond only with pKi recorded for CCCCCCC1(c2cc(O)c3c(c2)OC(C)(C)[C@@H]2CC=C(C)C[C@@H]32)CC1 8.48

Respond only with pKi recorded for CCCCCC#Cc1cc(O)c2c(c1)OC(C)(C)[C@@H]1CC=C(C)C[C@@H]21 8.51

Respond only with pKi recorded for C=C(C)[C@@H]1CCC(C)=C[C@H]1c1c(O)cc(C2(CCCCCC)SCCS2)cc1O 7.30
